I'd appreciate it if you could supply Score values for the items below.
- target_or_test_system: GST P1-1 (Homo sapiens)
- Construct: purchased Sigma-Aldrich
- experimental_details: High-throughput GST P1-1 inhibition assay (384-well screen, CDNB/GSH)
- Format: biochemical
- condition_set: compound 10 μM; score 0 = negative control (DMSO), 1 = positive control (EA 50 μM); average of duplicate
Numbers only.

Below, each entry is followed by its recorded Score result.
• Cc1cc(-c2ccc(/N=N/c3ccc4c(S(=O)(=O)O)cc(S(=O)(=O)O)c(N)c4c3O)c(C)c2)ccc1/N=N/c1ccc2c(S(=O)(=O)O)cc(S(=O)(=O)O)c(N)c2c1O = 0.783
• C[C@@H]1Cc2c([nH]c3ccccc23)[C@@H](c2c(F)cc(/C=C/C(=O)O)cc2F)N1CC(C)(C)F = 0.806
• CCCCCC/C=C/C=C\CCCCCCCC(=O)O [Cis-9,trans-11-Conjugated-linoleic-acid] = 0.796
• CC[C@@H](C(=O)[C@@H](C)[C@@H](O)[C@H](C)CCc1ccc(C)c(O)c1C(=O)O)[C@H]1O[C@](CC)([C@H]2CC[C@](O)(CC)[C@H](C)O2)C[C@@H]1C = 0.863
• O=S(=O)(O)c1ccc(-c2c3nc(c(-c4ccc(S(=O)(=O)O)cc4)c4ccc([nH]4)c(-c4ccc(S(=O)(=O)O)cc4)c4nc(c(-c5ccc(S(=O)(=O)O)cc5)c5ccc2[nH]5)C=C4)C=C3)cc1 = 0.809

Provide each entry's Score from the list below.
1. NC[C@@](O)(c1ccc(Cl)cc1)c1ccc(-c2cn[nH]c2)cc1
2. CC#C[C@@H](CC(=O)[O-])c1ccc(OCc2cccc(-c3ccc(C(F)(F)F)cc3)c2)cc1.CC#C[C@@H](CC(=O)[O-])c1ccc(OCc2cccc(-c3ccc(C(F)(F)F)cc3)c2)cc1.O.[Ca+2] [AMG 837 (calcium hydrate)]
3. Cc1cc(F)c(Nc2ncnc3cc(OCc4ccccc4)ccc23)cc1O.Cl [ZM323881 (hydrochloride)]
4. O=C1OC2(c3cc(I)c(O)c(I)c3Oc3c2cc(I)c(O)c3I)c2c(Cl)c(Cl)c(Cl)c(Cl)c21 [Rse-bengal]
5. CCCCCCCCCCCC1=C(O)C(=O)C=C(O)C1=O
6. O=C(O)c1ccccc1Nc1ccc(CCc2ccc(Cl)c(Cl)c2)cc1
7. O=c1c(-c2ccccc2)c1-c1ccccc1
8. CCc1ccc(/C=C2/SC(=S)NC2=O)cc1

1. 0.738
2. 0.783
3. 0.946
4. 0.996
5. 0.935
6. 0.858
7. 0.744
8. 0.731

Dear reader, for each entry below, please note its Score.
1. O=C1OC2(c3ccccc31)c1cc(I)c(O)c(I)c1Oc1c2cc(I)c(O)c1I
2. O=[N+]([O-])/C=C/c1ccc2c(c1)OCO2
3. COc1cc(-c2ccc(N=Nc3ccc4c(S(=O)(=O)[O-])cc(S(=O)(=O)[O-])c(N)c4c3O)c(OC)c2)ccc1N=Nc1ccc2c(S(=O)(=O)[O-])cc(S(=O)(=O)[O-])c(N)c2c1O.[Na+].[Na+].[Na+].[Na+]
4. Cc1c(S(=O)(=O)O)oc2c1C(=O)C(=O)c1c-2ccc2c1CCCC2(C)C [Tanshinone IIA sulfonate (sodium), Tanshinone IIA sulfonate]

1. 0.828
2. 0.850
3. 0.863
4. 0.981

For every listed record, write down its Score.
1. CC(C)c1onc(-c2c(Cl)cccc2Cl)c1COc1ccc(/C=C/c2cccc(C(=O)O)c2)c(Cl)c1
2. CC(C)c1cccc2c(-c3ccccc3)cc(-c3ccc(-c4ccc(C(=O)O)cc4)[nH]3)nc12
3. CC(C)(C)C(=O)CN1C(=O)[C@H](NC(=O)Nc2cccc(C(=O)O)c2)CN(C2CCCCC2)c2ccccc21 [Nastorazepide]
4. O=C(/C=C/c1ccccc1)NC(NC(=S)Nc1ccc(Cl)cc1)C(Cl)(Cl)Cl (stereo not shown)
5. O=C([O-])c1ccccc1-c1c2cc(Br)c(=O)cc-2oc2[c]([Hg+])c([O-])c(Br)cc12.[Na+].[Na+].[OH-]

[0.702, 0.927, 0.958, 0.865, 0.993]

* * *

Consider the following compounds; for each one, report its pIC50.
- Test system: L929 cells
- experimental_details: MTT cytotoxicity assay, L929
- Format: cell-based, mouse
- condition_set: MTT, 72 h incubation; read-out: IC50 (average ± standard deviation) L929
Answers are plain numbers, as −log10 of the molar value.

- O=C(O)c1c(Sc2ccccc2)c2cc(Cl)ccc2n1Cc1ccc(Cl)cc1 [nTZDpa]: 4.44

// next entry
Indicate its recorded pIC50; the compound in question is C=CC(=O)c1ccc2ccccc2c1 [ZM 449829]
5.09

* * *

- target_or_test_system: GST P1-1 (Homo sapiens, UniProt P09211)
- Construct: purchased Sigma-Aldrich
- Sequence (P09211 2-210 limits assumed): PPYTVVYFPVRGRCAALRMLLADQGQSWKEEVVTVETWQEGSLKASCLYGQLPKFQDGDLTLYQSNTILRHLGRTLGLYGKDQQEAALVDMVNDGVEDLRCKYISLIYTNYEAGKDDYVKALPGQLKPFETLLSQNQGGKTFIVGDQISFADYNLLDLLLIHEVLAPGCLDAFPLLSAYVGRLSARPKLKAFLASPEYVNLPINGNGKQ
- experimental_details: High-throughput GST P1-1 inhibition assay (384-well screen, CDNB/GSH)
- Assay type: biochemical
- condition_set: compound 10 μM; score 0 = negative control (DMSO), 1 = positive control (EA 50 μM); average of duplicate
# cutoff 0.8 applies to Score; >= gives met, < gives not met

These recorded examples may help you get a feel for the data.
• Oc1ccc2ccccc2c1SSc1c(O)ccc2ccccc12 = met
• O=C(O)C(Cc1ccccc1[N+](=O)[O-])=NNc1nc(-c2ccc(Cl)c(Cl)c2)cs1 (mixture of isomers) = not met
• O=C(O)c1ccc(S(=O)(=O)N(Cc2ccc(OC(F)(F)F)cc2)c2ncc(C(F)(F)F)cc2Cl)cc1 = not met
• Oc1c(Cl)cc(Cl)cc1Sc1cc(Cl)cc(Cl)c1O = met
• O=C1C=Cc2cc(Br)ccc2C1=O = not met
• CC(C)c1cc(C(C)C)c(CC(=O)NS(=O)(=O)Oc2c(C(C)C)cccc2C(C)C)c(C(C)C)c1 = met

Moving on to the next compound.
Please check the record CC1=C(CCC(=O)O)c2cc3[nH]c(cc4nc(cc5[nH]c(cc1n2)c(C)c5C(C)O)C(C)=C4C(C)O)c(C)c3CCC(=O)O (centres unmarked) and state if its Score is at or above 0.8.
not met

* * *

For each of the compounds below, state its IC50.
- target_or_test_system: GST P1-1 (Homo sapiens)
- Construct: purchased Sigma-Aldrich
- experimental_details: Determination of IC50 for GST P1-1 enzyme (dose-response / reconfirmation assay)
- Assay type: biochemical
- condition_set: Table 2, rounded values; read-out: IC50 GSTP1 enzymatic reaction
Answers are plain numbers, in µM.

// solved cases for IC50 follow
- Cc1cc(=O)n(-c2ccccc2)[nH]1: 0.8
- N#Cc1c(-c2ccccc2)cc(-c2cc(Br)ccc2O)[nH]c1=O: 2.2
- O=C(O)c1ccccc1Nc1ccc(CCc2ccc(Cl)c(Cl)c2)cc1: 0.3
- CCc1ccc(/C=C2/SC(=S)NC2=O)cc1: 2.8
- C[C@@H]1Cc2c([nH]c3ccccc23)[C@@H](c2c(F)cc(/C=C/C(=O)O)cc2F)N1CC(C)(C)F: 2.1
- C=CC(=O)c1ccc2ccccc2c1: 1.4
- O=C(O)c1cc(N2N=C(C(F)(F)F)/C(=C/c3ccc(-c4ccccc4)o3)C2=O)ccc1Cl: 1.1
- O=C(O)c1ccc2cc(-c3ccc(O)c(C45CC6CC(CC(C6)C4)C5)c3)ccc2c1: 0.3

Below are 2 compounds. Give each one its IC50.
1. Cl.O=C(O)Cc1cccc(OCCCN(Cc2cccc(C(F)(F)F)c2Cl)CC(c2ccccc2)c2ccccc2)c1 [GW3965 (hydrochloride)]
2. CCCCCCCCCCCC1=C(O)C(=O)C=C(O)C1=O

1. 0.4
2. 0.6

* * *

- target_or_test_system: GST P1-1 (Homo sapiens, UniProt P09211)
- Construct: purchased Sigma-Aldrich
- experimental_details: Determination of IC50 for GST P1-1 enzyme (dose-response / reconfirmation assay)
- Type: biochemical
- condition_set: reconfirmation assay
Structures can show the parent of a compound that is named as a salt.
measured_endpoint: Hill Slope (dose-response curve)
Numbers only.

Use these answered entries as a reference point.
* O=C(O)c1ccccc1Nc1ccc(CCc2ccc(Cl)c(Cl)c2)cc1 [PD-118057] | 1.8
* C[C@H]1COC2=C1C(=O)C(=O)c1c2ccc2c1CCCC2(C)C [Cryptotanshinone 97.0%, Cryptotanshinone] | 0.85
* Oc1c(Cl)cc(Cl)c(Cl)c1Cc1c(O)c(Cl)cc(Cl)c1Cl [Hexachlorophene] | 2.2

In one line, give reported Hill Slope (dose-response curve) of the entry CC(C)N(CCC(=O)c1ccc2ccccc2c1)Cc1ccccc1 [ZM 39923 (hydrochloride)] .
1.56

* * *

- Tested on: MCF-7 cells
- experimental_details: MTT cytotoxicity assay, MCF-7
- Assay type: cell-based, human
- condition_set: MTT, 72 h incubation; read-out: IC50 (average ± standard deviation) MCF-7
Please go through the items and note down their pIC50.
Give bare numbers, as −log10 of the molar value.

Example molecules with recorded pIC50:
- O=C(O)c1ccc2cc(-c3ccc(O)c(C45CC6CC(CC(C6)C4)C5)c3)ccc2c1 [CD437]: 6.29
- C=CC(=O)c1ccc2ccccc2c1 [ZM 449829]: 5.17
- O=C1NC(=O)/C(=C/c2ccc(-c3ccc(F)cc3O)o2)S1 [AS252424]: 4.42
- O=C(O)c1c(Sc2ccccc2)c2cc(Cl)ccc2n1Cc1ccc(Cl)cc1 [nTZDpa]: 4.41

Let's switch to this molecule now.
Read the entry O=C(O)c1ccccc1Nc1ccc(CCc2ccc(Cl)c(Cl)c2)cc1 [PD-118057] and write its reported pIC50.
4.39
